# Assay info: Acute toxicity (LD50)
# Assay type: in vivo
# Condition summary: mouse, in vivo, other: internal administration
Value kind: LD50 (mg/kg)
Supply the numeric figure in mg/kg, leaving out any unit text.

q: For the compound CN1CC(CO)O/C1=C(C#N)/C=C1/Nc2ccccc2C1=O (stereo not shown) [Compound I] , give its measured LD50 value.
a: 8900
